Just for reference, PubChem BioAssay AID330 is where these values come from.

# System: P388 leukemia ip, CD2F1 mice, survival T/C
# protocol: NCI In Vivo Anticancer Drug Screen. Data for tumor model P388 Leukemia (intraperitoneal) in CD2F1 (CDF1) mice
# condition.description: endpoint: median survival time; dose: 100.0 mg/kg/injection; schedule: Q01DX009 (ip); vehicle: saline with Tween-80
Inconclusive results and toxic doses are left out. Rule for the calls: active = survival T/C of 150% or more; inactive = T/C below 125% in these data.
Labels: label 1 for active, label 0 for inactive

| compound | answer.label |
| --- | --- |
| CCN(CC)CCNC1=CC(=S)NC(C)(C)C1 | label 0 |
| CCOC(=O)C(C)(OCC)OCC | label 0 |
| CC(C)(Nc1ccccc1)c1cccs1 | label 0 |
| CCOc1ccc(C(=O)Nc2c(C)cc(C)cc2C)cc1 | label 0 |
| Cc1ccc(NC(=O)Oc2ccc(OCc3ccccc3)cc2)c([N+](=O)[O-])c1 | label 0 |
| C=C(c1ccc(OC)cc1)c1ccc(OC)cc1 | label 0 |
| CCCCCCCCC(=O)CCCC | label 0 |
| COc1ccc(CC(N)c2nn[nH]n2)cc1 (stereo not drawn) | label 0 |
| O=C(Nc1nc2cccnc2s1)C(F)(F)F | label 0 |
| C(=Nc1cccc2ccccc12)Nc1cccc2ccccc12.[Cu+2] | label 0 |
| CN1COC(OC2OCN(C)CC2(C)C)C(C)(C)C1 (stereo not drawn) | label 1 |
| COc1ccc(C(=O)NO)cc1 | label 0 |
| CN(C)c1nc(N(C)C)n2c(-c3ccccc3[N+](=O)[O-])nnc2n1 | label 0 |
